Tested on: field corn (Zea mays L., var. Dekalb 535, CORN)
method-summary: Post-emerge test, crop safety
Assay type: in vivo
measurement-parameters: Rate 250 g ai/ha; rating scale 0-100 (0 no damage, 100 complete death); 14 days after application
measured-attribute: Post-emerge phytotoxicity rating CORN (crop damage)
Enter the number alone.

CCOC(=O)C(Br)Cc1c(OC)c(Cl)cc(F)c1-n1c(=O)cc(C(F)(F)F)n(C)c1=O (single isomer, unassigned) [14-32] :: 0
COc1c(Cl)cc(F)c(-n2c(=O)cc(C(F)(F)F)n(C)c2=O)c1CC(C)(Cl)C(=O)OC(C(F)(F)F)C(F)(F)F (stereo not shown) [14-46] :: 100

Next up:
query: Report Post-emerge phytotoxicity rating CORN (crop damage) from field corn (Zea mays L., var. Dekalb 535, CORN) testing of COC(=O)C(Cl)Cc1c(OC)c(Cl)cc(F)c1-n1c(=O)cc(C(F)(F)F)n(C)c1=O (stereo not shown) [14-3]
result: 100

###

Test system: upland rice (Oryza sp., var. Tebonnet, RICE)
method-summary: Post-emerge test, crop safety
Type: in vivo
measurement-parameters: 63 g ai/ha; post-emerge; 14 days after application; rating scale 0-100
Mark YES only when Post-emerge Herbicidal Activity RICE (crop damage rating) stays strictly below 50. Values equal to the cut-off are NO.

CCOC(=O)C(Cl)Cc1cc(Cl)cc(F)c1-n1c(=O)cc(C(F)(F)F)n(C)c1=O (centres unmarked) [14-60] :: YES
CCOC(=O)CC(C)=NNc1c(OC)c(Cl)cc(F)c1-n1c(=O)cc(C(F)(F)F)n(C)c1=O [15-16] :: YES
COc1c(Cl)cc(F)c(-n2c(=O)cc(C(F)(F)F)n(C)c2=O)c1NNC(=O)c1ccc(F)cc1F [15-4] :: NO
COc1c(Cl)cc(F)c(-n2c(=O)cc(C(F)(F)F)n(C)c2=O)c1NNC(=O)c1ccc2ccccc2c1 [15-5] :: NO
COc1c(Cl)cc(F)c(-n2c(=O)cc(C(F)(F)F)n(C)c2=O)c1NN=C(C)C [15-12] :: NO

query: Here's an entry: COc1c(Cl)cc(F)c(-n2c(=O)cc(C(F)(F)F)n(C)c2=O)c1NN=C1CCc2ccccc2C1 [15-18] . Is its Post-emerge Herbicidal Activity RICE (crop damage rating) below 50?
result: YES

###

System: velvetleaf (Abutilon theophrasti, ABUTH)
method-summary: Post-emerge test, greenhouse herbicide activity screening
Assay type: in vivo
measurement-parameters: 63 g ai/ha; phytotoxicity rating 0-100 (0 no damage, 100 complete death), 14 days after application
Listed here: items and their measured Post-emerge Herbicidal Activity ABUTH.
Enter the number alone.

COc1c(Cl)cc(F)c(-n2c(=O)cc(C(F)(F)F)n(C)c2=O)c1NC(=O)C(C)(C)C :: 80
COc1c(Cl)cc(F)c(-n2c(=O)cc(C(F)(F)F)n(C)c2=O)c1NC(=O)CC#N :: 90
COc1c(Cl)cc(F)c(-n2c(=O)cc(C(F)(F)F)n(C)c2=O)c1N=C(Cl)C(Cl)(Cl)Cl :: 30

query: Hello, please tell me recorded Post-emerge Herbicidal Activity ABUTH for this one: C=C(C)C(=O)N(C(=O)C(=C)C)c1c(OC)c(Cl)cc(F)c1-n1c(=O)cc(C(F)(F)F)n(C)c1=O
result: 0

query: Hello, please tell me recorded Post-emerge Herbicidal Activity ABUTH for this one: COc1c(Cl)cc(F)c(-n2c(=O)cc(C(F)(F)F)n(C)c2=O)c1NC(=O)c1ccc(C)c(C)c1
result: 100

query: Hello, please tell me recorded Post-emerge Herbicidal Activity ABUTH for this one: CCc1ccc(C(=O)Nc2c(OC)c(Cl)cc(F)c2-n2c(=O)cc(C(F)(F)F)n(C)c2=O)cc1
result: 100

query: Hello, please tell me recorded Post-emerge Herbicidal Activity ABUTH for this one: CCOC(=O)COc1c(Cl)cc(F)c(-n2c(=O)cc(C(F)(F)F)n(C)c2=O)c1N
result: 100

query: Hello, please tell me recorded Post-emerge Herbicidal Activity ABUTH for this one: COc1c(Cl)cc(F)c(-n2c(=O)cc(C(F)(F)F)n(C)c2=O)c1NC(=O)C=C(C)C
result: 70

query: Hello, please tell me recorded Post-emerge Herbicidal Activity ABUTH for this one: COc1c(Cl)cc(F)c(-n2c(=O)cc(C(F)(F)F)n(C)c2=O)c1N(C(=O)C=C(C)C)C(=O)C=C(C)C
result: 0
